assay system: Rap guanine nucleotide exchange factor 4 (Homo sapiens)
Sequence (Q8WZA2 whole entry): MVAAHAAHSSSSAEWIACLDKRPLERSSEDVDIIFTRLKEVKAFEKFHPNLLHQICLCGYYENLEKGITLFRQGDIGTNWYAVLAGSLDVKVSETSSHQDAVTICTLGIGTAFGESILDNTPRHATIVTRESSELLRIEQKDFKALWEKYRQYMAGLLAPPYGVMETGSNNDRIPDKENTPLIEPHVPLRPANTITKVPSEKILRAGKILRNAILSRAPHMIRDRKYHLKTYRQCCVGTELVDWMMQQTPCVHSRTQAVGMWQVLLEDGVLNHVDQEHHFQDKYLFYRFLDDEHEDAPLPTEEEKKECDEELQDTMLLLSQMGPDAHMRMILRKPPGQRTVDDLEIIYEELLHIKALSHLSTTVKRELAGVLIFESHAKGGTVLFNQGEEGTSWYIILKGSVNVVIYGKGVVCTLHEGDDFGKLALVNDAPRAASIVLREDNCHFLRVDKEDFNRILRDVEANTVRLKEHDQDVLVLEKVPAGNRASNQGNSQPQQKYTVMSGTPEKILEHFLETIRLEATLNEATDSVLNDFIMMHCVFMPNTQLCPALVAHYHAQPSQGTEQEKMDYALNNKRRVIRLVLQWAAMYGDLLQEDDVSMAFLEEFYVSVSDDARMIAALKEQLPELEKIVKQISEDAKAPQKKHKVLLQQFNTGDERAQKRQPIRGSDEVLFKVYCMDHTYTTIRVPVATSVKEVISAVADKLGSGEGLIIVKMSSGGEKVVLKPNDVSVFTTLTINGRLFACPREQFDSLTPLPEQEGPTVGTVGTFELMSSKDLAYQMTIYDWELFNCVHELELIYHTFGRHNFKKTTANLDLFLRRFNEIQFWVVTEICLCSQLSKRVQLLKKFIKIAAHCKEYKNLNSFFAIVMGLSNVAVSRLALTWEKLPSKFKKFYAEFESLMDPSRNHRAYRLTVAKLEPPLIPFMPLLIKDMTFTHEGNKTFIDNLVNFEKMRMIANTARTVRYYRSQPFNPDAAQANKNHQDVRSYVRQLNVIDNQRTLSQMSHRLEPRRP
protocol description: Antagonist activity at recombinant full length EPAC2 (unknown origin) assessed as inhibition of cAMP-mediated Rap1b-BODIPY GDP nucleotide exchange activity
parameter measured: pIC50
Numbers only, as −log10 of the molar value.

Q: Please report pIC50 for the following molecule: C[C@@H]1CCc2c(cc(Br)c(F)c2Br)N1C=O
Result: 4.77
